Biological target: 5-hydroxytryptamine receptor 4 (Homo sapiens)
Assay: Agonist activity at human 5HT4C receptor expressed in HEK293 cells assessed as accumulation of cAMP by flash plate adenylyl cyclase activation assay
// returns f unless EC50 is strictly below 20 nM, in which case t

smiles.code | category
CC(C)n1c(=O)c(C(=O)N[C@H]2C[C@H]3CC[C@@H](C2)N3CCCN2CCCCC2)cc2ccccc21 | t
COc1cc(N)c(Cl)cc1C(=O)NC1CCN(CCCCCCCCN2CCCCC2)CC1 | t
CC(C)n1c(=O)c(C(=O)N[C@H]2C[C@H]3CC[C@@H](C2)N3CCN2CCN(S(C)(=O)=O)CC2)cc2ccccc21 | t
CCCCCN1[C@@H]2CC[C@H]1C[C@@H](NC(=O)c1cc3ccccc3n(C(C)C)c1=O)C2 | f

hey, is EC50 for CCCCCCCCN1[C@@H]2CC[C@H]1C[C@@H](NC(=O)c1cc3ccccc3n(C(C)C)c1=O)C2 lower than 20 nM or not?
f

# strict comparison: is reported EC50 < 20 nM? input = COc1cc(N)c(Cl)cc1C(=O)NC1CCN(CCCCCCCCN(C)CCc2c[nH]c3ccccc23)CC1
t

Below 20 nM on EC50? Entry CC(C)n1c(=O)n(C(=O)NCC2CCNCC2)c2ccccc21
t

###

Assay: Oral bioavailability in Sprague-Dawley rat at 5 mg/kg, po
Assay type: ADME, organism-based
Settings: in vivo
test.readout: bioavailability (%)
Express it in %; write the number only.

What does the record list as bioavailability for CC(C)n1c(=O)c(C(=O)N[C@H]2C[C@H]3CC[C@@H](C2)N3C[C@@H](O)CN2CCN(S(C)(=O)=O)CC2)cc2ccccc21 ?
20

Reported bioavailability for CC(C)n1c(=O)c(C(=O)N[C@H]2C[C@H]3CC[C@@H](C2)N3CCCN2CCN(S(C)(=O)=O)CC2)cc2ccccc21 : what is it?
38

Which bioavailability value belongs to CCCCCNC(=N)N/N=C/c1c[nH]c2ccc(OC)cc12 [TEGASEROD] ?
5

Returns the measured bioavailability for the input compound. Input: CC(C)n1c(=O)c(C(=O)N[C@H]2C[C@H]3CC[C@@H](C2)N3CCCCCCCN2CCN(S(C)(=O)=O)CC2)cc2ccccc21
20

###

The entries below are paired with their reported Ratio Ki.
Species: Homo sapiens
Assay: Selectivity ratio of Ki for human 5HT3A receptor to Ki for human 5HT4C receptor
Lab note: jot the number down without any unit.

In the examples that follow, each entry is paired with its recorded Ratio Ki.
smiles.code | test.readout | reading
CC(C)n1c(=O)c(C(=O)N[C@H]2C[C@H]3CC[C@@H](C2)N3CCCCCCCCN2C(=O)c3ccccc3C2=O)cc2ccccc21 | Ratio Ki | 120
CC(C)n1c(=O)c(C(=O)N[C@H]2C[C@H]3CC[C@@H](C2)N3CCCCCN2CCN(S(C)(=O)=O)CC2)cc2ccccc21 | Ratio Ki | 2800
COc1ccc2[nH]cc(C(=O)NCC3CCNCC3)c2c1 | Ratio Ki | 1.1

Given the compound CC(C)n1c(=O)c(C(=O)N[C@H]2C[C@H]3CC[C@@H](C2)N3CCCCCCCCN(C)CCc2c[nH]c3ccccc23)cc2ccccc21 , what is its reported Ratio Ki?
2300

###

Target: 5-hydroxytryptamine receptor 4 (Homo sapiens, UniProt Q13639)
Sequence (Q13639 whole entry): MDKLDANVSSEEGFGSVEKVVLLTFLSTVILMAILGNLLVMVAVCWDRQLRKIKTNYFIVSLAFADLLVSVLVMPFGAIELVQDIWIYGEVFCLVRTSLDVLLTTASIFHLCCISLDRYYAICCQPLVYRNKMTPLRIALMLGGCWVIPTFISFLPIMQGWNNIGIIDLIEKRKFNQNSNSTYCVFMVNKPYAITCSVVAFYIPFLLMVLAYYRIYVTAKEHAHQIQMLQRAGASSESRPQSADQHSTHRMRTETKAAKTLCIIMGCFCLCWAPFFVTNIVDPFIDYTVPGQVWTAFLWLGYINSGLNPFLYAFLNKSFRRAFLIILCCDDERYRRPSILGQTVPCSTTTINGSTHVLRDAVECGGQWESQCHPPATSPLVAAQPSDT
Test: Intrinsic activity at human 5HT4C receptor expressed in HEK293 cells assessed as accumulation of cAMP by flash plate adenylyl cyclase activation assay relative to serotonin
Type: functional, cell-based
test.readout: Intrinsic activity

Look over these answered cases.
smiles.code | measured.target | Intrinsic activity
CCCCCCCCN1CCC(NC(=O)c2cc(Cl)c(N)cc2OC)CC1 | 5-hydroxytryptamine receptor 4 (Homo sapiens, UniProt Q13639) | > 100%
CC(C)n1c(=O)c(C(=O)N[C@H]2C[C@H]3CC[C@@H](C2)N3CCCN2CCC(CNS(C)(=O)=O)CC2)cc2ccccc21 | 5-hydroxytryptamine receptor 4 (Homo sapiens, UniProt Q13639) | > 100%
CC(C)n1c(=O)c(C(=O)N[C@H]2C[C@H]3CC[C@@H](C2)N3CCCCCCCCN2CCCCC2)cc2ccccc21 | 5-hydroxytryptamine receptor 4 (Homo sapiens, UniProt Q13639) | 99%

Quick one: Intrinsic activity of COc1cc(N)c(Cl)cc1C(=O)NC1CCN(CCCCCCCCN(C)CCc2c[nH]c3ccccc23)CC1 ?
> 100%

Given the entry COc1ccc2[nH]cc(C(=O)NCCN3CCNCC3)c2c1 , report its measured Intrinsic activity.
0%

Which value of Intrinsic activity has been reported for CC(C)n1c(=O)c(C(=O)N[C@H]2C[C@H]3CC[C@@H](C2)N3CCCCCO)cc2ccccc21 in the records?
> 100%

Give the measured Intrinsic activity of CC(C)n1c(=O)n(C(=O)N[C@H]2C[C@H]3CC[C@@H](C2)N3)c2ccccc21 .
> 100%

May I ask what Intrinsic activity has been recorded for CC(C)n1c(=O)c(C(=O)N[C@H]2C[C@H]3CC[C@@H](C2)N3CCCCCCCCN2CCN(S(C)(=O)=O)CC2)cc2ccccc21 ?
> 100%

###

Target: 5-hydroxytryptamine receptor 4 (Homo sapiens, UniProt Q13639)
Assay: Agonist activity at human 5HT4C receptor expressed in HEK293 cells assessed as accumulation of cAMP by flash plate adenylyl cyclase activation assay
This section presents molecules with their documented pEC50 values.
# reply with the number alone; pEC50 is -log10 of concentration in mol/L

Worked examples, 3 molecules total:
smiles.code | measured.target | pEC50
CC(C)n1c(=O)c(C(=O)N[C@H]2C[C@H]3CC[C@@H](C2)N3CCCCCCCCO)cc2ccccc21 | 5-hydroxytryptamine receptor 4 (Homo sapiens, UniProt Q13639) | 7.80
CC(C)n1c(=O)n(C(=O)N[C@H]2C[C@H]3CC[C@@H](C2)N3)c2ccccc21 | 5-hydroxytryptamine receptor 4 (Homo sapiens, UniProt Q13639) | 7.80
COc1cc(N)c(Cl)cc1C(=O)NC1CCN(CCCCCCCCO)CC1 | 5-hydroxytryptamine receptor 4 (Homo sapiens, UniProt Q13639) | 7.80

// returns reported pEC50 for input CC(C)n1c(=O)n(C(=O)NCCN2CCNCC2)c2ccccc21
8.10

###

Entries annotated with measured Intrinsic activity
Target: 5-hydroxytryptamine receptor 4 (Homo sapiens, UniProt Q13639)
Test: Intrinsic activity at human 5HT4C receptor expressed in HEK293 cells assessed as accumulation of cAMP by flash plate adenylyl cyclase activation assay relative to serotonin
Format: functional, cell-based

smiles.code | Intrinsic activity
CCOC(=O)N1CCN(CCCN2[C@@H]3CC[C@H]2C[C@@H](NC(=O)c2cc4ccccc4n(C(C)C)c2=O)C3)CC1 | > 100%
COc1cc(N)c(Cl)cc1C(=O)NC1CCNCC1 | > 100%
CC(C)n1c(=O)c(C(=O)N[C@H]2C[C@H]3CC[C@@H](C2)N3CCCCCN2C(=O)c3ccccc3C2=O)cc2ccccc21 | > 100%

Quick one: Intrinsic activity for CC(C)n1c(=O)c(C(=O)N[C@H]2C[C@H]3CC[C@@H](C2)N3CCCCCCCCN(C)CCc2c[nH]c3ccccc23)cc2ccccc21 ?
> 100%

Param item = COc1cc(N)c(Cl)cc1C(=O)NC1CCN(CCN2CCN(S(C)(=O)=O)CC2)CC1 ; retrieve measured Intrinsic activity.
97%

Tell me the measured Intrinsic activity of CC(C)n1c(=O)c(C(=O)N[C@H]2C[C@H]3CC[C@@H](C2)N3CCCN2CCN(S(C)(=O)=O)CC2)cc2ccccc21 , please.
> 100%

Look up Intrinsic activity: CC(C)n1c(=O)c(C(=O)N[C@H]2C[C@H]3CC[C@@H](C2)N3CCN(C)CCc2c[nH]c3ccccc23)cc2ccccc21
92%

Given CC(C)n1nc(C(=O)NC2CCNCC2)c2ccccc21 , state its recorded Intrinsic activity.
50%

Form field: reported Intrinsic activity of CC(C)n1c(=O)c(C(=O)N[C@H]2C[C@H]3CC[C@@H](C2)N3CCCCCN2CCN(S(C)(=O)=O)CC2)cc2ccccc21
> 100%

Which Intrinsic activity is reported for this molecule? COc1cc(N)c(Cl)cc1C(=O)NC1CCN(CCN2CCCCC2)CC1
> 100%

Quick check: Intrinsic activity of CC(C)n1c(=O)c(C(=O)N[C@H]2C[C@H]3CC[C@@H](C2)N3CCCCCCCN2CCOCC2)cc2ccccc21 ?
> 100%

Please look up its Intrinsic activity: CC(C)n1c(=O)c(C(=O)NCC2CCNCC2)cc2ccccc21
> 100%

Record request: Intrinsic activity value, item CC(C)n1c(=O)n(C(=O)NCCN2CCNCC2)c2ccccc21
> 100%

###

Target: 5-hydroxytryptamine receptor 4 (Homo sapiens, UniProt Q13639)
Assay: Intrinsic activity at human 5HT4C receptor expressed in HEK293 cells assessed as accumulation of cAMP by flash plate adenylyl cyclase activation assay relative to serotonin
Assay type: functional, cell-based
test.readout: Intrinsic activity (%)
Express your answer in %, writing the number without its unit.

smiles.code | reading
COc1ccc2[nH]cc(C(=O)NC3CCNCC3)c2c1 | 0

Query (compound): CCN1[C@@H]2CC[C@H]1C[C@@H](NC(=O)c1cc3ccccc3n(C(C)C)c1=O)C2 ; field requested: Intrinsic activity
96
